# experimentalSystem: A2BR (Homo sapiens, UniProt P29275, Y10F)
# Sequence (P29275 1-332 Y10F): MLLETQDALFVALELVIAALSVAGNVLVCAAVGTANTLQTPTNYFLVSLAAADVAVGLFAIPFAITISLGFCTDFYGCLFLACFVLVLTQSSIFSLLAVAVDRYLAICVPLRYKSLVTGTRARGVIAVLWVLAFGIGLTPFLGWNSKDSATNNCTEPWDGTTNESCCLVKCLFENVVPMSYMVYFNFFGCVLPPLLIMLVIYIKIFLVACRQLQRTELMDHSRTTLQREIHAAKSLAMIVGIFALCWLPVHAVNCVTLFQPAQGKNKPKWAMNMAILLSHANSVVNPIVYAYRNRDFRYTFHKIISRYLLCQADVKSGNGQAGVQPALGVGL
# method: GloSensor cAMP assay, HEK293
For each entry below, report its pIC50 value.
One number for each entry, as −log10 of the molar value.

Cc1c(C#N)cccc1-c1cc(-c2cn(Cc3cccc(C(C)(C)O)n3)nn2)nc(N)n1 [AB928]	8.89

// moving on: another record for pIC50
**Query** Provide only the value of recorded pIC50 for Cc1c(C#N)cccc1-c1cc(-c2ccn(Cc3cccc(C(C)(C)O)n3)c(=O)c2)nc(N)n1 [2-118]
**Result** 6.36

Just for reference, paper doi:10.1101/2023.07.01.547314v1 is where these values come from.
